target.desc: NACHT, LRR and PYD domains-containing protein 3 (Mus musculus) (UniProt Q8R4B8)
Sequence (Q8R4B8 whole entry, the tested form may be a part): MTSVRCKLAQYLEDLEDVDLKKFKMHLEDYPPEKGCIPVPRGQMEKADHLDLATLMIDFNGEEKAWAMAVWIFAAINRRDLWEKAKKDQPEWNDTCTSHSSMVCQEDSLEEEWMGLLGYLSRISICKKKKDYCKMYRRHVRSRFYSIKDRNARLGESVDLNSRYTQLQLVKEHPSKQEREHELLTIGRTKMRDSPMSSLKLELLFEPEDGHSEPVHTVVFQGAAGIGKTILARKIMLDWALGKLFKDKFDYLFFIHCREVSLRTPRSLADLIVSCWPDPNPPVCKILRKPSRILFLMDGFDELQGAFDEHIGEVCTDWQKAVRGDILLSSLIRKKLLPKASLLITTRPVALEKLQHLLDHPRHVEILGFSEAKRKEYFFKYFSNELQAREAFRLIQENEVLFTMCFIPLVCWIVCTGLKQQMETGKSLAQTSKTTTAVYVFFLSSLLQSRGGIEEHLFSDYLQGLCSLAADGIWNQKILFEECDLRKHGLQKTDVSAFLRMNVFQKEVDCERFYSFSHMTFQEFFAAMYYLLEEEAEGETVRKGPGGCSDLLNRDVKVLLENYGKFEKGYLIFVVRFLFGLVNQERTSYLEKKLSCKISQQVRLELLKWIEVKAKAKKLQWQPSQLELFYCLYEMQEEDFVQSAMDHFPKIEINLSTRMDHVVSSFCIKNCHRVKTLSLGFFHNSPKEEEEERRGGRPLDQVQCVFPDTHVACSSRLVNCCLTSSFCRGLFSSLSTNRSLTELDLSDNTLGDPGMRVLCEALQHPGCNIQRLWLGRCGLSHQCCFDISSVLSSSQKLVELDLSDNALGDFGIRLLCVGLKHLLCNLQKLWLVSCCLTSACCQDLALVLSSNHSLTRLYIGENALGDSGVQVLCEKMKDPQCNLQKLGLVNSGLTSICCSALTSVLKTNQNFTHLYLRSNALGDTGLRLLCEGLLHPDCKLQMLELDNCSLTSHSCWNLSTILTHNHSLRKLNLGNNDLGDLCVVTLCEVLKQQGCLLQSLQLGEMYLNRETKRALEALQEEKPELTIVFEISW
protocol.summary: Inhibition of NLRP3 inflammasome activation in LPS-treated mouse BMDM cells assessed as inhibition of Bz-ATP-stimulated IL-1beta release at 1 uM incubated for 30 mins followed by Bz-ATP stimulation for 30 mins by ELISA method relative to control
Assay type: cell-based
stated.conditions: time 60.0 min

mol	inhibition [%]
CC(C)[C@@H](NS(=O)(=O)c1ccc(N)cc1)C(=O)Nc1c2c(cc3c1CCC3)CCC2	25.1
O=C(CCNS(=O)(=O)c1ccc([N+](=O)[O-])cc1)Nc1c2c(cc3c1CCC3)CCC2	36.5
O=C(Nc1c2c(cc3c1CCC3)CCC2)[C@@H]1CCCN1S(=O)(=O)c1ccc([N+](=O)[O-])cc1	25.7
CC(C)C[C@H](NS(=O)(=O)c1ccc([N+](=O)[O-])cc1)C(=O)Nc1c2c(cc3c1CCC3)CCC2	53.9
O=C(Nc1c2c(cc3c1CCC3)CCC2)[C@H](Cc1ccccc1)NS(=O)(=O)c1ccc([N+](=O)[O-])cc1	19.8
O=C(Nc1c2c(cc3c1CCC3)CCC2)[C@@H]1CCCCN1S(=O)(=O)c1ccc([N+](=O)[O-])cc1	52.4
NCCCC[C@H](NS(=O)(=O)c1ccc(N)cc1)C(=O)Nc1c2c(cc3c1CCC3)CCC2	28.4
Nc1ccc(S(=O)(=O)N2CCC[C@H]2C(=O)Nc2c3c(cc4c2CCC4)CCC3)cc1	41.6
